Where these numbers come from: patent US20250376468A1

Quick reference for IC50 among some compounds
# systemName: mouse TRPM3α2 (mTRPM3) ion channel (Mus musculus)
# Construct: expressed in transfected cells; host or cells: flip-in HEK293 (Flp-In HEK293) overexpressing mTRPM3alpha2
# assaySummary: TRPM3 ion channel driven Ca2+ uptake, Fluo-4 AM assay, stimulated with pregnenolone sulfate (50 μM)
# Assay type: cell-based
# recordedConditions: TRPM3 overexpressing flip-in HEK293 cells, PS 50 μM, 2.4 mM Ca2+

Recorded results for 3 compounds are shown here.
>>> df
                                   compound                                systemname    observed
0  Cc1nn2ccc(OCc3ccccc3F)cc2c1C(=O)NC1(CO)CCNC1=O (single isomer, unassigned) [Cpd 018 - En2]  mouse TRPM3α2 (mTRPM3) ion channel (Mus musculus)      < 1 µM
1  Cc1nn2ccc(OCc3ccccc3F)cc2c1C(=O)NC(C)(C)C(N)=O  mouse TRPM3α2 (mTRPM3) ion channel (Mus musculus)  1 to 20 µM
2  Cc1nn2ccc(OCc3ccccn3)cc2c1C(=O)NCc1cccc(OC(F)F)c1  mouse TRPM3α2 (mTRPM3) ion channel (Mus musculus)     > 20 µM

Turning now to a further compound:
Prompt: // IC50 lookup, key: Cc1nn2ccc(OCc3ccccn3)cc2c1C(=O)NC(C)(CO)C(N)=O (single isomer, unassigned) [Cpd 089 - En1]
Completion: > 20 µM

* * *

# systemName: mouse TRPM3α2 (mTRPM3) ion channel (Mus musculus)
# Construct: expressed in transfected cells; host or cells: flip-in HEK293 (Flp-In HEK293) overexpressing mTRPM3alpha2
# assaySummary: TRPM3 ion channel driven Ca2+ uptake, Fluo-4 AM assay, stimulated with pregnenolone sulfate (50 μM)
# Assay type: cell-based
# recordedConditions: TRPM3 overexpressing flip-in HEK293 cells, PS 50 μM, 2.4 mM Ca2+
propertyMeasured: IC50

Consider the worked cases shown below.
>>> df
                                   molecule                                systemname  observed
0  Cc1nn2ccc(OCc3ccccc3Cl)cc2c1C(=O)NC(C)(CO)CO  mouse TRPM3α2 (mTRPM3) ion channel (Mus musculus)    < 1 µM
1  Cc1nn2ccc(OCc3ccccn3)cc2c1C(=O)NC(C)(CO)C(N)=O (single isomer, unassigned) [Cpd 089 - En2]  mouse TRPM3α2 (mTRPM3) ion channel (Mus musculus)    < 1 µM
2       Cc1nn2ccc(OCc3ccccn3)cc2c1C(=O)NCCO  mouse TRPM3α2 (mTRPM3) ion channel (Mus musculus)   > 20 µM

Prompt: Data request, read-out IC50, for Cc1nn2ccc(OCc3ccccn3)cc2c1C(=O)NC1CNCC(F)(F)C1 (single isomer, unassigned) [Cpd 052 - En2]
Completion: > 20 µM

Prompt: Now the same for Cc1nn2ccc(OCc3ccccn3)cc2c1C(=O)N[C@H](CO)CC(N)=O
Completion: > 20 µM

Prompt: Next molecule: Cc1ncsc1COc1ccn2nc(C)c(C(=O)N[C@@H](CO)C(N)=O)c2c1
Completion: 1 to 20 µM

* * *

Listed here are molecules together with their documented IC50.
# systemName: mouse TRPM3α2 (mTRPM3) ion channel (Mus musculus, UniProt J9SQF3)
# Construct: expressed in transfected cells; host or cells: flip-in HEK293 (Flp-In HEK293) overexpressing mTRPM3alpha2
# Sequence (J9SQF3 1-1709 isoform J9SQF3-12): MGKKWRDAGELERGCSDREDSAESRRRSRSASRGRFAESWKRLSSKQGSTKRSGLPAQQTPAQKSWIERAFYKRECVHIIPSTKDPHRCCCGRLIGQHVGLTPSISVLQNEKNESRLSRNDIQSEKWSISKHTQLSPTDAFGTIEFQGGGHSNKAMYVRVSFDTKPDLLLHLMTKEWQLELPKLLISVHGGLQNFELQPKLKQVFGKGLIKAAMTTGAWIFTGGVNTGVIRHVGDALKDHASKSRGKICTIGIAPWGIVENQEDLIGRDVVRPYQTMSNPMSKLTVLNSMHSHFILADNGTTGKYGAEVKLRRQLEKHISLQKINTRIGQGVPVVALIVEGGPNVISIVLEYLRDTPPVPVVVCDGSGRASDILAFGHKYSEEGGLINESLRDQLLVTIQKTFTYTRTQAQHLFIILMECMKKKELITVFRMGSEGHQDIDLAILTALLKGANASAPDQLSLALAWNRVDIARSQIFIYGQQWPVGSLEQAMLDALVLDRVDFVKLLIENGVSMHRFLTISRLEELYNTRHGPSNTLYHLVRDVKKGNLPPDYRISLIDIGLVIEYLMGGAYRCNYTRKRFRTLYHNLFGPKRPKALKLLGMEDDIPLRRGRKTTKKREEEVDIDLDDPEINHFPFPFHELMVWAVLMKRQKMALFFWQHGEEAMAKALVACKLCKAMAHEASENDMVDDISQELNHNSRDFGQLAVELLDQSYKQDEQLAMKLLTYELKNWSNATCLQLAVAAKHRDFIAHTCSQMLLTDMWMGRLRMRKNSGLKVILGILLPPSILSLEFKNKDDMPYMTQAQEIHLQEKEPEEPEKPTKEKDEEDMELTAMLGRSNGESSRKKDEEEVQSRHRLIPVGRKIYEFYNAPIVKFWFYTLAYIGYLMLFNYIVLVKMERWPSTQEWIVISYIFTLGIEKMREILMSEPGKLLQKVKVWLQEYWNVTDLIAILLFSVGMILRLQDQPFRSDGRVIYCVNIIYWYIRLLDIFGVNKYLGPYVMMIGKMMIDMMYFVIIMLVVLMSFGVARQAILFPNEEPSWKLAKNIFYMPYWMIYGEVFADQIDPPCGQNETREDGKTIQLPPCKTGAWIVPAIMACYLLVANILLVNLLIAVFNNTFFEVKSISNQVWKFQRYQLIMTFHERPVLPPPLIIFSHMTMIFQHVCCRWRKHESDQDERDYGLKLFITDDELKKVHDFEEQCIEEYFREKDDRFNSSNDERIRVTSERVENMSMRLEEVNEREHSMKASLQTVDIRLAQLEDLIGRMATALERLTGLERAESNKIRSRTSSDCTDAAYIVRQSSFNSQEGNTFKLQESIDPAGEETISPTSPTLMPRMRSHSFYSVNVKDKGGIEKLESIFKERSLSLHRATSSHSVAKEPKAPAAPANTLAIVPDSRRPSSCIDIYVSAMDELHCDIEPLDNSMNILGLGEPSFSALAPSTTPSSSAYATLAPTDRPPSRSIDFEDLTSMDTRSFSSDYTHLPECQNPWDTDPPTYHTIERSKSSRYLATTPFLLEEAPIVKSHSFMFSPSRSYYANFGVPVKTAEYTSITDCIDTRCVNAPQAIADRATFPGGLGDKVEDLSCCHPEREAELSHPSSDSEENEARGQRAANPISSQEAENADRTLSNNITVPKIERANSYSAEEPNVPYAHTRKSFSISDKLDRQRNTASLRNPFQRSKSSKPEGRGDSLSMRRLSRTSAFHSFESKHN
# assaySummary: TRPM3 ion channel driven Ca2+ uptake, Fluo-4 AM assay, stimulated with pregnenolone sulfate (50 μM)
# Format: cell-based
# recordedConditions: TRPM3 overexpressing flip-in HEK293 cells, PS 50 μM, 2.4 mM Ca2+

                                   molecule  observed
0  Cc1nn2ccc(OCc3ccccn3)cc2c1C(=O)NC(CO)CC(N)=O (stereo not drawn)   > 20 µM
1  Cc1nn2ccc(OCc3ccccc3Cl)cc2c1C(=O)N[C@@H](CO)C(N)=O    < 1 µM
2  Cc1nn2ccc(OCc3ccccn3)cc2c1C(=O)NC(C)(CO)CC(F)F (single isomer, unassigned) [Cpd 038 - En2]    < 1 µM

Prompt: Report IC50 for Cc1nn2ccc(OCc3ccccc3Cl)cc2c1C(=O)NC(C)(C)C(N)=O tested on mouse TRPM3α2 (mTRPM3) ion channel (Mus musculus, UniProt J9SQF3).
Completion: 1 to 20 µM

Prompt: Record: Cc1nn2ccc(OCc3ccccn3)cc2c1C(=O)NC1(CO)COC(C)(C)OC1
Completion: > 20 µM

Prompt: Thanks! And Cc1nn2ccc(OCc3ccccn3)cc2c1C(=O)NCC(F)(F)F ?
Completion: > 20 µM

Prompt: Here is the next molecule: Cc1nn2ccc(OCc3ccccn3)cc2c1C(=O)NCc1ncc[nH]1
Completion: 1 to 20 µM

Prompt: Here is the next molecule: Cc1nn2ccc(OCc3ccccc3F)cc2c1C(=O)NC1(CO)CCNC1=O (single isomer, unassigned) [Cpd 018 - En1]
Completion: 1 to 20 µM

Prompt: How about this molecule: Cc1nn2ccc(OCc3ccccc3F)cc2c1C(=O)N[C@@H](CO)C(N)=O
Completion: < 1 µM

* * *

# systemName: mouse TRPM3α2 (mTRPM3) ion channel (Mus musculus, UniProt J9SQF3)
# Construct: expressed in transfected cells; host or cells: flip-in HEK293 (Flp-In HEK293) overexpressing mTRPM3alpha2
# assaySummary: TRPM3 ion channel driven Ca2+ uptake, Fluo-4 AM assay, stimulated with pregnenolone sulfate (50 μM)
# Format: cell-based
# recordedConditions: TRPM3 overexpressing flip-in HEK293 cells, PS 50 μM, 2.4 mM Ca2+
propertyMeasured: IC50

Answered cases to consult:
>>> print(df.to_string())
                                   compound  propertymeasured    observed
0  Cc1nn2ccc(OCc3ccccn3)cc2c1C(=O)NC1(CO)CC1(F)F (centres unmarked)              IC50     > 20 µM
1  CNC(=O)C(C)(CO)NC(=O)c1c(C)nn2ccc(OCc3ccccc3F)cc12 (single isomer, unassigned) [Cpd 011 - En1]              IC50      < 1 µM
2  Cc1nn2ccc(OCc3ccccc3F)cc2c1C(=O)N(C)C(C)(CO)C(N)=O (single isomer, unassigned) [Cpd 024 - En2]              IC50  1 to 20 µM
3  Cc1nn2ccc(OCc3ccccn3)cc2c1C(=O)NC(CO)Cc1ncccn1 (centres unmarked)              IC50     > 20 µM
4  CCC(CO)(NC(=O)c1c(C)nn2ccc(OCc3ccccc3F)cc12)C(N)=O (centres unmarked)              IC50      < 1 µM
5  Cc1nn2ccc(OCc3ccccc3F)cc2c1C(=O)NC(C)(CO)C(N)=O (single isomer, unassigned) [Cpd 020 - En1]              IC50      < 1 µM

Prompt: Entry under review: Cc1nn2ccc(OCc3ccccn3)cc2c1C(=O)Nc1cc(C(F)(F)F)cnc1O . Reported IC50?
Completion: > 20 µM

Prompt: Can you check Cc1nn2ccc(OCc3ccccc3F)cc2c1C(=O)N[C@H](C(N)=O)[C@@H](C)O next?
Completion: < 1 µM

* * *

Catalogue of IC50 readings, one per entry.
# systemName: mouse TRPM3α2 (mTRPM3) ion channel (Mus musculus)
# Construct: expressed in transfected cells; host or cells: flip-in HEK293 (Flp-In HEK293) overexpressing mTRPM3alpha2
# assaySummary: TRPM3 ion channel driven Ca2+ uptake, Fluo-4 AM assay, stimulated with pregnenolone sulfate (50 μM)
# Format: cell-based
# recordedConditions: TRPM3 overexpressing flip-in HEK293 cells, PS 50 μM, 2.4 mM Ca2+

Record excerpt, results attached:
>>> df
                                   compound                                systemname  propertymeasured    observed
0  Cc1nn2ccc(OCc3ccccn3)cc2c1C(=O)NC1CNCC(F)(F)C1 (single isomer, unassigned) [Cpd 052 - En1]  mouse TRPM3α2 (mTRPM3) ion channel (Mus musculus)              IC50  1 to 20 µM
1        Cc1nn2ccc(OCc3ccccc3Cl)cc2c1C(=O)O  mouse TRPM3α2 (mTRPM3) ion channel (Mus musculus)              IC50     > 20 µM
2  Cc1nn2ccc(OCc3ccccn3)cc2c1C(=O)NCc1c(F)cccc1C(F)(F)F  mouse TRPM3α2 (mTRPM3) ion channel (Mus musculus)              IC50  1 to 20 µM

Prompt: Look up IC50: Cc1nn2ccc(OCC3CC3)cc2c1C(=O)O
Completion: > 20 µM

Prompt: Repeat for the following compound: Cc1nn2ccc(OCc3ccccc3F)cc2c1C(=O)N(C)C(C)(CO)C(N)=O (single isomer, unassigned) [Cpd 024 - En1]
Completion: 1 to 20 µM

Prompt: Same again, this time with Cc1nn2ccc(OCc3ccccc3F)cc2c1C(=O)NC(C)(CO)CO
Completion: 1 to 20 µM

Prompt: What do you get for Cc1nn2ccc(OCc3ccccc3Cl)cc2c1C(=O)NC(C)(CO)C(N)=O (single isomer, unassigned) [Cpd 019 - En2] ?
Completion: 1 to 20 µM

Prompt: Also need Cc1nn2ccc(OCc3ccccn3)cc2c1C(=O)NC1CNCCC1(F)F (single isomer, unassigned) [Cpd 050 - En1] , thanks.
Completion: > 20 µM
